assay_system: UniProt Q7ZJM1
test: Inhibitory activity was determined against recombinant HIV-1 Integrase (0.1 uM) in strand transfer enzyme assay
property_name: IC50

Sample CC(C)Oc1ccc(Cc2ccccc2)cc1C(=O)CC(=O)C(=O)O — what was its IC50?
< 100 nM

----------
assay_system: Human immunodeficiency virus type 1 integrase (Human immunodeficiency virus 1)
Sequence (Q7ZJM1 whole entry): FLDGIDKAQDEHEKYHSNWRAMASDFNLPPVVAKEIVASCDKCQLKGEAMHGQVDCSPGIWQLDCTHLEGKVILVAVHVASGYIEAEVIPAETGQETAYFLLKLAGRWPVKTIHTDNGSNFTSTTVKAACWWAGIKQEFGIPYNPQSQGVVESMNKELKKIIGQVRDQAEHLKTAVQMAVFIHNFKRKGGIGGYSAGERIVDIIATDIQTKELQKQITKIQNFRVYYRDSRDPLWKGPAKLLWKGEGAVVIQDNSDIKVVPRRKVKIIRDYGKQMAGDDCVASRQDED
pIC50 overview
Scale: negative log10 of molar concentration, which is what pIC50 denotes.

- O=C(O)C(=O)CC(=O)c1ccc(Cc2ccccc2)s1: 6.30
- O=C(O)C(=O)CC(=O)c1cccn1Cc1ccccc1: 6.66
- O=C(O)C(=O)CC(=O)c1ccsc1Cc1ccccc1: 6.74
- O=C(O)C(=O)CC(=O)c1ccccc1Cc1ccccc1: 5.25
- COc1cc(Cc2ccccc2)cc(C(=O)CC(=O)C(=O)O)c1: 6.85

Missing value: pIC50, Human immunodeficiency virus type 1 integrase (Human immunodeficiency virus 1), entry O=C(O)C(=O)CC(=O)c1cccc(Cc2cccc(F)c2)c1 . Fill in?
6.60

Missing value: pIC50, Human immunodeficiency virus type 1 integrase (Human immunodeficiency virus 1), entry COc1ccc(C(=O)CC(=O)C(=O)O)cc1Cc1ccccc1 . Fill in?
6.82
